# Lookup of reported composite z-score keyed by entry
# System: Human papillomavirus type 1a E7 protein (residues 1-88)
# METHOD_SUMMARY: HPV1a E7 small-molecule binders, primary screen, biochemical, small-molecule microarray, residues 1-88, 635 nm (AID 1129)
# CONDITION_SET: small-molecule microarray binding, fluorescence 635 nm; higher = more signal

| MOLECULE | composite z-score |
| --- | --- |
| CC(C)CN1C(=O)[C@@]2(c3ccc([N+](=O)[O-])cc3)CC(=O)N(C3CCCCC3)[C@@H]2c2ccc(CO)cc21 | -1.07 |
| CC(C)[Si](C#CCCCC#N)(Oc1ccccc1Br)C(C)C | 0.725 |
| CS(=O)(=O)CCOC(=O)C1=CC(CCCO)=CC(C2CC2)N(Cc2cc3c(cc2Br)OCO3)C=C1C(=O)OCCS(C)(=O)=O (configuration not stated) | 0.419 |
| C[C@H]1C2[C@H](Cc3ccccc3)NC(=O)[C@]23C(=O)NCC(=O)N2CCC[C@H]2C(=O)NC/C=C/CCC/C=C/C3[C@@H]2O[C@]12C (some centres not stated) | -1.28 |

Query: Please state recorded composite z-score (tested on Human papillomavirus type 1a E7 protein (residues 1-88)) of O=C1[C@@]23C=C(Br)[C@H](C[C@@H]2COC3)[C@]12CO2
Reply: -3.63

Query: What would you report for COC(=O)C(CC#Cc1ccc2c(c1)[C@]1(C(=O)N2)[C@H](c2ccc(O)cc2)N2[C@H](c3ccccc3)[C@H](c3ccccc3)OC(=O)[C@H]2[C@@H]1C(=O)N1CCN(c2ncccn2)CC1)C(=O)OC ?
Reply: 1.23

Query: What would you report for COc1ccc([Si](C)(C)[C@@H]2[C@@H](CCn3cc(CCO)nn3)O[C@]3(C(=O)N(Cc4cccc(N5C(=O)c6cccc7cccc5c67)c4)c4ccccc43)[C@H]2C)cc1 ?
Reply: 1.16

---

# MEASUREMENT_TARGET: Torsin-1A-interacting protein 2 (Homo sapiens) (UniProt Q8NFQ8)
# Sequence (Q8NFQ8 whole entry, looked up): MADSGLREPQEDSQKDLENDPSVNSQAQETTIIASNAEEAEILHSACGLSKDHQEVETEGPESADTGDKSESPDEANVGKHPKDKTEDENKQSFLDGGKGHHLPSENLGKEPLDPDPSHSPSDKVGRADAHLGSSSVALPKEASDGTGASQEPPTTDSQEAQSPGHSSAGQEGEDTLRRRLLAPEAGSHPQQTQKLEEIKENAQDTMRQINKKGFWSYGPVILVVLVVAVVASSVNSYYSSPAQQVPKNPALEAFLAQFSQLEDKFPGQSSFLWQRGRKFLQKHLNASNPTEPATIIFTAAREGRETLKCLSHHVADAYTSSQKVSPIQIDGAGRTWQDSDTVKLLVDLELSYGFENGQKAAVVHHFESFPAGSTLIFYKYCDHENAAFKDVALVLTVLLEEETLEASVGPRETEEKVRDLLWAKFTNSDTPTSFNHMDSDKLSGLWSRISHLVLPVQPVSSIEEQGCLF
# METHOD_SUMMARY: small molecules binding lysate-expressed LULL1 – cell lysate, human LULL1 lysate, 635/667 nm fluorescence, primary screen (AID 1092);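 note: probe is lysate of COS7 cells overexpressing human LULL1; score merges per-feature 667 nm fluorescence with signal-to-noise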
# CONDITION_SET: small-molecule microarray, hLULL1 lysate binding, 635 nm fluorescence; higher = more signal
Threshold rule: composite z-score greater than or equal to 1 is T; below that, F.

Worked cases, answers included:
| MOLECULE | ANSWER_LABEL |
| --- | --- |
| C#CCNCc1ccccc1 | F |
| C[C@H]1C2[C@H](Cc3ccccc3)NC(=O)[C@]23C(=O)NCC(=O)N2CCC[C@H]2C(=O)NC/C=C/CCC/C=C/C3[C@@H]2O[C@]12C (stereo partly specified) | F |
| CN1C(=O)C2C=CC(C(O)c3ccccc3)N(N3CCCCC3)C2C1=O (stereo unspecified) | T |
| COC(=O)[C@]1(CCC(=O)OC(C)(C)C)N=C(c2ccc(OCCCO)cc2)O[C@@H]1c1ccccc1 | T |

Query: Is reported composite z-score greater than or equal to 1 here: CO[C@H]1O[C@H](CO)[C@@H](OC(=O)Nc2cccc(F)c2)[C@H](OC(=O)Nc2ccccc2)[C@H]1OC(=O)Nc1ccccc1
Reply: T

Query: What would you report for CCOC(=O)C1=CC[C@@H](c2ccccc2)N(S(=O)(=O)c2ccc(C)cc2)[C@H]1c1ccc(CC)cc1 ?
Reply: T

Query: What would you report for C[N+](C)(C)CCCCCCNC(=O)[C@H]1C[C@H]2C(=O)N[C@@H](Cc3ccccc3)C(=O)N2[C@H]1c1cccc(OCCO)c1 ?
Reply: T

Query: What would you report for CCOC(=O)C[C@H]1[C@H](OC(=O)c2ccc(-c3ccccc3)cc2)[C@@H](NC(=O)c2ccccc2)c2cc(OCCCO)ccc2N1C(=O)Cc1ccc(OC)cc1 ?
Reply: F

Query: What would you report for COCCOC(=O)N1C(=O)[C@@]2(c3ccccc31)[C@H](c1ccc(OCCO)cc1)N1[C@H](c3ccccc3)[C@H](c3ccccc3)OC(=O)[C@H]1[C@@H]2C(=O)N1CCc2cc(OC)c(OC)cc2C1 ?
Reply: T

Query: What would you report for Cc1ccc(S[C@]2(C(=O)NCC(C)C)CC(=O)N(Cc3cc(C(F)(F)F)cc(C(F)(F)F)c3)[C@@H]2c2ccc(CO)cc2)cc1 ?
Reply: F

Query: What would you report for O=C1C2C=CC(C(O)C=Cc3ccc([N+](=O)[O-])cc3)N(Nc3ccccc3F)C2C(=O)N1c1ccccc1 (stereo unspecified) ?
Reply: T

Query: What would you report for C=C[C@H](C)[C@@H](OC(=O)Nc1ccc(SC)cc1)c1ccc(O)c2ccccc12 ?
Reply: T

Query: What would you report for O=C(NCCN1CCOCC1)[C@@H]1c2ccccc2C(=O)N(Cc2cc(C(F)(F)F)cc(C(F)(F)F)c2)[C@H]1c1ccc(CO)cc1 ?
Reply: T

Query: What would you report for COCCCNC(=O)[C@@H]1c2ccccc2C(=O)N(Cc2ccccc2OC)[C@H]1c1ccc(CO)cc1 ?
Reply: T

Query: What would you report for O=C1[C@H]2C=C(Br)[C@H](C[C@@H]2OCCCCCCO)[C@@]12CO2 ?
Reply: F
